Tested on: Bacillus subtilis
Assay Comment: cleaved RNA product abundance (RNA/gDNA barcode ratio) relative to median wild-type variant (ratio to wild type); higher = more accumulation of the downstream cleavage product
Settings: experiment (reporter, strain, medium): exp 2b: truncated aprE reporter, strain BJT200; cleavage site: cggR-gapA (positions -7 to +36 mutated)
Where cleaved RNA product abundance equals or exceeds 0.1, the correct label is t; where it does not, the label is f.

As a guide, the following entries are already answered.
1) ACAGACGAAGGAGCCGCAAAGAAGTTATTAAGGTATGAATAATACCTCAATATAAATATCTCTCACTTATTTAAA :: t
2) ACAGACGAAGGAGCCGCAAAGAAGTTATTAAGGAATGAAGAATCCCTCAATATAAATATCTCTCACTTATTTAAA :: f
3) ACAGACGAAGGAGCCGCAATGAAGTTATTAAGGGAAGAATAATCCCTCAATATAAATATCTCTCACTTATTTAAA :: t

Data request: Does the reported cleaved RNA product abundance for ACAGACGAAGGAGCCGCAAAGACGTTATTAAGGGATGAATCATCCCTCAATATAAATATCTCTCACTTATTTAAA fall at or above the 0.1 mark?
Data returned: t

Data request: Decide: cleaved RNA product abundance of ACAGACGAAGGAGCCGCAAAGAAGTTAATAAGGGATGAATAATCCTTCAATATAAATATCTCTCACTTATTTAAA >= 0.1?
Data returned: t

Data request: # bool: cleaved RNA product abundance of ACAGACGAAGGAGCCGCAAAGACGTTATTAAGGGATGAATAATCCATCAATATAAATATCTCTCACTTATTTAAA >= 0.1
Data returned: t

Data request: Is cleaved RNA product abundance at least 0.1? Consider ACAGACGAAGGAGCCGCAAAGATGTTAATAAGGGATGAATAATCCCTCAATATAAATATCTCTCACTTATTTAAA
Data returned: t

Data request: Reported cleaved RNA product abundance at or above 0.1? ACAGACGAAGGAGCCGCAAAGAAGTTATTTAGCGATGAATAATCCCTCAATATAAATATCTCTCACTTATTTAAA
Data returned: t

Data request: Hello, I need to know if ACAGACGAAGGAGCCGCTAAGAAGTTATTAAGGGATGAATAATCCCTCAATATAAATATCTCTCACTTATTTAAA has measured cleaved RNA product abundance not below 0.1. Thanks!
Data returned: t

====

Test system: Bacillus subtilis
Assay Comment: cleaved RNA product abundance (RNA/gDNA barcode ratio) relative to median wild-type variant (ratio to wild type); higher = more accumulation of the downstream cleavage product
Settings: experiment (reporter, strain, medium): exp 4a: truncated aprE reporter, strain BJT201 with 2% xylose (RNase J1 expressed); cleavage site: cggR-gapA (positions -7 to +36 mutated)
Param threshold (0.1) applies to cleaved RNA product abundance; output satisfied when value >= threshold, not satisfied when value < threshold.

1. ACAGACGAAGGAGCCGCAAAGAAGTCATTAAGGGATGAATAATCCCTCAAAATAAATATCTCTCACTTATTTAAA :: satisfied
2. ACAGACGAAGGAGCCGCAAAGAAGTTATTAAGGGATGAATAATCCGTCGATATAAATATCTCTCACTTATTTAAA :: satisfied
3. ACAGACGAAGGAGCCGCAAAGAAGTTATTAACGGATGAATAATCCCTCAATATTAATATCTCTCACTTATTTAAA :: not satisfied

Data request: Dear colleague, could you confirm whether ACAGACGAAGGAGCCGCAAAGAAGTTATTAAGGAATGAATAATCCCTCAATATCAATATCTCTCACTTATTTAAA has cleaved RNA product abundance at or above 0.1?
Data returned: not satisfied

Data request: Check the entry ACAGACGAAGGAGCCGCAAAGAAGTTATTAAAGGATGAATAATCCCACAATATAAATATCTCTCACTTATTTAAA : does cleaved RNA product abundance equal or exceed 0.1?
Data returned: satisfied

Data request: Could you tell me if the measured cleaved RNA product abundance of ACAGACGAAGGAGCCGCAAAGAAGTTATTAAGTGATGAATAATCCCCCAATATAAATATCTCTCACTTATTTAAA reaches 0.1 or more?
Data returned: satisfied

Data request: hey, is cleaved RNA product abundance for this one >= 0.1? ACAGACGAAGGAGCCGCAAAGAATTTATAAAGGGATGAATAATCCCTCAATATAAATATCTCTCACTTATTTAAA
Data returned: satisfied
